Data origin, for the record: ChEMBL document CHEMBL1671830

assay: Half life in human liver S9 fraction; type: ADME, subcellular
Listed compounds paired with reported half-life
Give a bare numeral; the unit min is implied.

[[record]]
compound = "COc1nc(N)nc2c1ncn2[C@@H]1O[C@H](COP(=O)(N[C@@H](C)C(=O)OC(C)C)Oc2ccccc2)[C@@H](O)[C@@]1(C)F (stereo in doubt; 23)"
unit_tag = "min"
measurement = 12

[[record]]
compound = "COC(=O)[C@H](C)NP(=O)(OC[C@H]1O[C@@H](n2cnc3c(N4CCC4)nc(N)nc32)[C@](C)(F)[C@@H]1O)Oc1ccccc1 (stereo partly drawn)"
unit_tag = "min"
measurement = 24


q: Look up half-life: C[C@H](NP(=O)(OC[C@H]1O[C@@H](n2cnc3c(O)nc(N)nc32)[C@](C)(F)[C@@H]1O)Oc1ccccc1)C(=O)OC1CCCC1 (stereo partly drawn)
a: 12

----------
experiment: Half life in simulated intestinal fluid; type: ADME
Listed compounds paired with reported half-life

[[record]]
compound = "COc1nc(N)nc2c1ncn2[C@@H]1O[C@H](COP(=O)(N[C@@H](C)C(=O)OC(C)C)Oc2ccccc2)[C@@H](O)[C@@]1(C)F (stereo in doubt; 23)"
measurement = "> 20 h"

[[record]]
compound = "C[C@H](NP(=O)(OC[C@H]1O[C@@H](n2cnc3c(O)nc(N)nc32)[C@](C)(F)[C@@H]1O)Oc1ccccc1)C(=O)OC1CCCC1 (stereo partly drawn)"
measurement = "> 20 h"


Query compound follows.
q: Look up half-life: COC(=O)[C@H](C)NP(=O)(OC[C@H]1O[C@@H](n2cnc3c(N4CCC4)nc(N)nc32)[C@](C)(F)[C@@H]1O)Oc1ccccc1 (stereo partly drawn)
a: > 20 h

----------
Listed molecules paired with reported CC50 at 96 h
assay: Cytotoxicity against human HuH7 cells after 96 hrs by MTS assay; format: cell-based, Huh-7

[[record]]
molecule = "CC(C)OC(=O)[C@H](C)NP(=O)(OC[C@H]1O[C@@H](n2cnc3c(O)nc(N)nc32)[C@](C)(F)[C@@H]1O)Oc1ccccc1 (stereo partly drawn)"
property_name = "CC50 at 96 h"
measurement = "> 100 µM"

[[record]]
molecule = "CC(C)OC(=O)[C@H](C)NP(=O)(OC[C@H]1O[C@@H](n2cnc3c(N4CCC4)nc(N)nc32)[C@](C)(F)[C@@H]1O)Oc1ccccc1 (stereo partly drawn)"
property_name = "CC50 at 96 h"
measurement = "53 µM"

[[record]]
molecule = "CCOC(=O)[C@H](C)NP(=O)(OC[C@H]1O[C@@H](n2cnc3c(NC4CC4)nc(N)nc32)[C@](C)(F)[C@@H]1O)Oc1ccccc1 (stereo partly drawn)"
property_name = "CC50 at 96 h"
measurement = "> 100 µM"

[[record]]
molecule = "CCOc1nc(N)nc2c1ncn2[C@@H]1O[C@H](COP(=O)(N[C@@H](C)C(=O)OC)Oc2ccccc2)[C@@H](O)[C@@]1(C)F (stereo partly drawn)"
property_name = "CC50 at 96 h"
measurement = "> 100 µM"

[[record]]
molecule = "CCOC(=O)[C@H](C)NP(=O)(OC[C@H]1O[C@@H](n2cnc3c(OC)nc(N)nc32)[C@](C)(F)[C@@H]1O)Oc1ccccc1 (stereo partly drawn)"
property_name = "CC50 at 96 h"
measurement = "> 100 µM"


q: Look up CC50 at 96 h: C[C@H](NP(=O)(OC[C@H]1O[C@@H](n2cnc3c(O)nc(N)nc32)[C@](C)(F)[C@@H]1O)Oc1ccccc1)C(=O)OC1CCCCC1 (stereo partly drawn)
a: > 100 µM

----------
tested on: Hepatitis C virus; assay: Antiviral activity against HCV infected in human HuH7 cells by cell-based replicon assay; type: functional, Hepacivirus hominis, Huh-7; settings: Hepatitis C virus, Huh-7
// thresholds for EC90 classes: group 1 (below 10 nM), group 2 (10 nM to below 30 nM), group 3 (30 nM or more)

[[record]]
compound = "CCOC(=O)[C@H](C)NP(=O)(OC[C@H]1O[C@@H](n2cnc3c(OCCF)nc(N)nc32)[C@](C)(F)[C@@H]1O)Oc1ccccc1 (some centres undefined)"
assigned_label = "group 2"

[[record]]
compound = "CC(C)OC(=O)[C@H](C)NP(=O)(OC[C@H]1O[C@@H](n2cnc3c(O)nc(N)nc32)[C@](C)(F)[C@@H]1O)Oc1ccccc1 (some centres undefined)"
assigned_label = "group 3"

[[record]]
compound = "CCOC(=O)[C@H](C)NP(=O)(OC[C@H]1O[C@@H](n2cnc3c(NC4CCC4)nc(N)nc32)[C@](C)(F)[C@@H]1O)Oc1ccccc1 (some centres undefined)"
assigned_label = "group 2"


q: Using the reported EC90, which band applies to COC(=O)[C@H](C)NP(=O)(OC[C@H]1O[C@@H](n2cnc3c(NC4CC4)nc(N)nc32)[C@](C)(F)[C@@H]1O)Oc1ccccc1 (some centres undefined) ?
a: group 1

----------
Listed molecules paired with reported CC50 at 96 h
assay: Cytotoxicity against human HepG2 cells after 96 hrs by MTS assay; type: cell-based

These recorded examples may help you get a feel for the data.
[[record]]
molecule = "COC(=O)[C@H](C)NP(=O)(OC[C@H]1O[C@@H](n2cnc3c(N4CCC4)nc(N)nc32)[C@](C)(F)[C@@H]1O)Oc1ccccc1 (some centres not stated)"
property_name = "CC50 at 96 h"
measurement = "> 100 µM"

[[record]]
molecule = "CCOC(=O)[C@H](C)NP(=O)(OC[C@H]1O[C@@H](n2cnc3c(NC4CC4)nc(N)nc32)[C@](C)(F)[C@@H]1O)Oc1ccccc1 (some centres not stated)"
property_name = "CC50 at 96 h"
measurement = "> 100 µM"

[[record]]
molecule = "COc1nc(N)nc2c1ncn2[C@@H]1O[C@H](COP(=O)(N[C@@H](C)C(=O)OC(C)C)Oc2ccccc2)[C@@H](O)[C@@]1(C)F (stereo in doubt; 23)"
property_name = "CC50 at 96 h"
measurement = "62 µM"

[[record]]
molecule = "CCCOc1nc(N)nc2c1ncn2[C@@H]1O[C@H](COP(=O)(N[C@@H](C)C(=O)OC)Oc2ccccc2)[C@@H](O)[C@@]1(C)F (some centres not stated)"
property_name = "CC50 at 96 h"
measurement = "45 µM"

[[record]]
molecule = "C[C@H](NP(=O)(OC[C@H]1O[C@@H](n2cnc3c(O)nc(N)nc32)[C@](C)(F)[C@@H]1O)Oc1ccccc1)C(=O)OC1CCCC1 (some centres not stated)"
property_name = "CC50 at 96 h"
measurement = "> 100 µM"

[[record]]
molecule = "CCOc1nc(N)nc2c1ncn2[C@@H]1O[C@H](COP(=O)(N[C@@H](C)C(=O)OC)Oc2ccccc2)[C@@H](O)[C@@]1(C)F (some centres not stated)"
property_name = "CC50 at 96 h"
measurement = "> 100 µM"


Query molecule follows.
q: Look up CC50 at 96 h: CCOc1nc(N)nc2c1ncn2[C@@H]1O[C@H](COP(=O)(N[C@@H](C)C(=O)OC(C)C)Oc2ccccc2)[C@@H](O)[C@@]1(C)F (some centres not stated)
a: > 100 µM

----------
Listed compounds paired with reported CC50 at 96 h
experiment: Cytotoxicity against human CEM cells after 96 hrs by MTS assay; type: cell-based; conditions: CEM (CCRF-CEM) cells

q: Look up CC50 at 96 h: C[C@H](NP(=O)(OC[C@H]1O[C@@H](n2cnc3c(O)nc(N)nc32)[C@](C)(F)[C@@H]1O)Oc1ccccc1)C(=O)OC1CCCCC1 (stereo partly specified)
a: > 100 µM

q: Look up CC50 at 96 h: COc1nc(N)nc2c1ncn2[C@@H]1O[C@H](COP(=O)(N[C@@H](C)C(=O)OC(C)C)Oc2ccccc2)[C@@H](O)[C@@]1(C)F (stereo in doubt; 23)
a: > 100 µM

q: Look up CC50 at 96 h: CCOC(=O)[C@H](C)NP(=O)(OC[C@H]1O[C@@H](n2cnc3c(O)nc(N)nc32)[C@](C)(F)[C@@H]1O)Oc1ccccc1 (stereo partly specified)
a: > 100 µM

q: Look up CC50 at 96 h: CC(C)OC(=O)[C@H](C)NP(=O)(OC[C@H]1O[C@@H](n2cnc3c(NC4CC4)nc(N)nc32)[C@](C)(F)[C@@H]1O)Oc1ccccc1 (stereo partly specified)
a: > 100 µM

q: Look up CC50 at 96 h: CC(C)OC(=O)[C@H](C)NP(=O)(OC[C@H]1O[C@@H](n2cnc3c(O)nc(N)nc32)[C@](C)(F)[C@@H]1O)Oc1ccccc1 (stereo partly specified)
a: > 100 µM

q: Look up CC50 at 96 h: C[C@H](NP(=O)(OC[C@H]1O[C@@H](n2cnc3c(O)nc(N)nc32)[C@](C)(F)[C@@H]1O)Oc1ccccc1)C(=O)OC1CCCC1 (stereo partly specified)
a: > 100 µM
